- system_name: UniProt:Q12809
- Sequence (Q12809 whole entry): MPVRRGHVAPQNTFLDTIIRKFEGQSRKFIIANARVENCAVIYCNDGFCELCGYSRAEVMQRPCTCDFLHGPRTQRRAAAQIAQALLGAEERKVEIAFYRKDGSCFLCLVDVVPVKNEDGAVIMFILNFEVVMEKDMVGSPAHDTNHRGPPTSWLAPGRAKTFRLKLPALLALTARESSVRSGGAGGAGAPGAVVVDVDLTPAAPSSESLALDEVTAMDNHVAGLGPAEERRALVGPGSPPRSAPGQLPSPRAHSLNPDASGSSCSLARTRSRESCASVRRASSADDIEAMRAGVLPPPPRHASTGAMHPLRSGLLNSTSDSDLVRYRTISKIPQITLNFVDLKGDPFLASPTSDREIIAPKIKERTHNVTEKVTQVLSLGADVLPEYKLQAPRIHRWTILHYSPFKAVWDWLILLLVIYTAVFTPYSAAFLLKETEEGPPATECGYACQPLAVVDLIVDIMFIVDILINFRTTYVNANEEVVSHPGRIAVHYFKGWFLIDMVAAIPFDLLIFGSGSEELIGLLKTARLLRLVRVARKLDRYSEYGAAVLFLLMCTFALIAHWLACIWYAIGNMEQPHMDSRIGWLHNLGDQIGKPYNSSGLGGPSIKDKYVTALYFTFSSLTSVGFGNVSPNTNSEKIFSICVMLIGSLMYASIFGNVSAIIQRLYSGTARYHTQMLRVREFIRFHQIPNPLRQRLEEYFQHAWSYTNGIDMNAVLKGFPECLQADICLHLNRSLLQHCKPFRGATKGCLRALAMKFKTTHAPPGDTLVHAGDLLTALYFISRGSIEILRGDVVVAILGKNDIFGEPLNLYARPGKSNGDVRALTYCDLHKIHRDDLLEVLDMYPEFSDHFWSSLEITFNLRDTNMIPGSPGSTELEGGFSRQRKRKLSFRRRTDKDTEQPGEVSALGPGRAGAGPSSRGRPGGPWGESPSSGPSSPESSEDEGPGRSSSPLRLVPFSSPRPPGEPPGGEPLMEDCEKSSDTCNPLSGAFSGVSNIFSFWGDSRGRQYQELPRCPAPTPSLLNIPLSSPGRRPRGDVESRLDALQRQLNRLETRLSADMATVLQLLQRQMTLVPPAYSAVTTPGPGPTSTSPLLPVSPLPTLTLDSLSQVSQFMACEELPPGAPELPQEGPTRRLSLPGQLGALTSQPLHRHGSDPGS
- measurement_protocol: Inhibition of hERG expressed in HEK cells by electrophysiology
pIC50: −log10 of the molar value.

{"record_smiles": "CN1CCN(c2ccc(-n3cnc(Nc4cnc(C#N)cn4)c3)cc2)CC1", "pIC50": "< 4.52"}

---

- measurement_protocol: in vivo
- condition_description: Sprague-Dawley, rat, brain and plasma, iv, 1 mg/kg
- Description: Unbound brain-to-plasma concentration ratio in Sprague-Dawley rat at 1 mg/kg, iv measured after 15 mins by rapid equilibrium dialysis method
observation_type: Kp uu at […]

{"record_smiles": "CN1CCN(c2ccc(-n3cnc(Nc4cnc(C#N)cn4)c3)cc2)CC1", "experimental_result": 0.4}

---

- measurement_protocol: Apparent permeability of the compound in dog MDCK-MDR1 cells at 1 uM measured after 1 day by LC-MS/MS analysis
- Format: ADME, cell-based, Canis lupus familiaris

{"record_smiles": "N#Cc1cnc(Nc2cn(C(F)F)cn2)cn1", "measurement_unit": "×10⁻⁶ cm/s", "Papp at 24 h, 1 µM": 66}

---

- measurement_protocol: Kinetic aqueous solubility of the compound at 250 uM measured after 2 hrs by RP-UPLC-DAD analysis
- Assay type: physicochemical
- condition_description: buffer, read-out: Kinetic_solubility

{"record_smiles": "CN1CCN(c2ccc(-n3cnc(Nc4cnc(C#N)cn4)c3)cc2)CC1", "measurement_unit": "µM", "solubility kinetic at 2 h, 250 µM": 59}

---

- system_name: Serine/threonine-protein kinase Chk1 (Homo sapiens, UniProt O14757)
- Sequence (O14757 whole entry): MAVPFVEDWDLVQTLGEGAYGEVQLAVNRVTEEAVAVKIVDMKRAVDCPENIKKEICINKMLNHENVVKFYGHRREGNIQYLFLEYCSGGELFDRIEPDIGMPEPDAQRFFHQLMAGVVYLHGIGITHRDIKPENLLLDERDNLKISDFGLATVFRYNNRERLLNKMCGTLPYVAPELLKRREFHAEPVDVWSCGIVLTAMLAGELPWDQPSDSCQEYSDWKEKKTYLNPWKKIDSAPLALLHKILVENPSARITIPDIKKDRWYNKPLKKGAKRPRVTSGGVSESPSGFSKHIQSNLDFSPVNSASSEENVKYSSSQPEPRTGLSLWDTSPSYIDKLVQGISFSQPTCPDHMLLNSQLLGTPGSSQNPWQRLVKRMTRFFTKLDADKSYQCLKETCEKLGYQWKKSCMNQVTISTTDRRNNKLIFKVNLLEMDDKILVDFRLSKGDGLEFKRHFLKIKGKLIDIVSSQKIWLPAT
- measurement_protocol: Inhibition of N-terminal GST-fused human full length CHK1 (1 to 476 residues) expressed in baculovirus-infected Sf21 cells using STK1 S1 as substrate preincubated for 30 mins in presence of ATP followed by MgCl2 addition and measured after 60 mins by TR-FRET assay
pIC50: −log10 of the molar value.

{"record_smiles": "C[C@@H]1CN(c2ccc(-n3cnc(Nc4cnc(C#N)cn4)c3)cc2)C[C@@H]1N(C)C", "pIC50": 7.80}
{"record_smiles": "C[C@H]1CN(c2ccc(-n3cnc(Nc4cnc(C#N)cn4)c3)cc2)C[C@@H]1N(C)C", "pIC50": 8.40}
{"record_smiles": "CCN1CCN(c2ccc(-n3cnc(Nc4cnc(C#N)cn4)c3)cc2)CC1", "pIC50": 7.68}
{"record_smiles": "CN1CCN(c2ccc(-n3cnc(Nc4cnc(C#N)cn4)c3)cc2)CC1", "pIC50": 7.82}

---

- system_name: Serine/threonine-protein kinase Chk1 (Homo sapiens)
- Sequence (O14757 whole entry): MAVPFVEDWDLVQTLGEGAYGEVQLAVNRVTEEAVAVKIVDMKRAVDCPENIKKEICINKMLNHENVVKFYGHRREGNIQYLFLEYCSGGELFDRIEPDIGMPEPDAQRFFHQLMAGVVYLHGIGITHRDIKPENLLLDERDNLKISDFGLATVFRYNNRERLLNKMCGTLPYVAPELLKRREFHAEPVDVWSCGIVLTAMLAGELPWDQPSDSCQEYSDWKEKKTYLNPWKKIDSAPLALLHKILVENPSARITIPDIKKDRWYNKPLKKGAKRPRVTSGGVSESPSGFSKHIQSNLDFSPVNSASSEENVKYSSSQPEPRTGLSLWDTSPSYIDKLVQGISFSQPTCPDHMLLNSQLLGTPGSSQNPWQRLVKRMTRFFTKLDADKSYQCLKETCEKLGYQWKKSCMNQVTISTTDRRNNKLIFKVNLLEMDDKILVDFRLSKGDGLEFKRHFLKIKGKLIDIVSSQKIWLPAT
- measurement_protocol: Inhibition of N-terminal GST-fused human full length CHK1 (1 to 476 residues) expressed in baculovirus-infected Sf21 cells using STK1 S1 as substrate preincubated for 30 mins in presence of ATP followed by MgCl2 addition and measured after 60 mins by TR-FRET assay
pIC50: −log10 of the molar value.

{"record_smiles": "CN1CC2(CCN(c3nc(Nc4cn(-c5ccccn5)cn4)cnc3C#N)C2)C1", "pIC50": 8.70}
{"record_smiles": "CN(C)C1CCN(c2ccc(-n3cnc(Nc4cnc(C#N)cn4)c3)cc2)CC1", "pIC50": 7.96}
{"record_smiles": "CN1CC2(CCN(c3ccc(-n4cnc(Nc5cnc(C#N)cn5)c4)cc3)C2)C1", "pIC50": 7.92}
